Reference source for all entries: paper PMC6199744

Tested on: methylthioadenosine phosphorylase (LmjF.05.0830)
EXPERIMENT_NOTES: Multitargeted bead mixture competition
Format: binding, Leishmania
EXPERIMENTAL_PARAMETERS: protein LMJF.05.0830 METHYLTHIOADENOSINE PHOSPHORYLASE, PUTATIVE
Below: a set of entries, each annotated with reported fold change vs vehicle control.

Completed entries (count: 2):
>  <MOLECULE>
Nc1nc2cccc(-c3ccccc3)c2n1Cc1ccc(Cl)c(Cl)c1

>  <fold change vs vehicle control>
0.94

$$$$
>  <MOLECULE>
CCCCCCOc1ccc(Cc2cnc(N)nc2N)cc1

>  <fold change vs vehicle control>
0.19

$$$$

Moving on to another molecule below.
# input May I ask what fold change vs vehicle control has been recorded for NCCOCCOCC(=O)Nc1nc2ncc(CNc3ccc(C(=O)NC(CCC(=O)O)C(=O)O)cc3)nc2c(=O)[nH]1 (stereo not drawn) ?
# output 0.96
